# SUBJECT OF TEST: NS3/4A protease gt 1b (Hepatitis C virus genotype 1b, UniProt P26663)
# Sequence (P26663 1027-1657): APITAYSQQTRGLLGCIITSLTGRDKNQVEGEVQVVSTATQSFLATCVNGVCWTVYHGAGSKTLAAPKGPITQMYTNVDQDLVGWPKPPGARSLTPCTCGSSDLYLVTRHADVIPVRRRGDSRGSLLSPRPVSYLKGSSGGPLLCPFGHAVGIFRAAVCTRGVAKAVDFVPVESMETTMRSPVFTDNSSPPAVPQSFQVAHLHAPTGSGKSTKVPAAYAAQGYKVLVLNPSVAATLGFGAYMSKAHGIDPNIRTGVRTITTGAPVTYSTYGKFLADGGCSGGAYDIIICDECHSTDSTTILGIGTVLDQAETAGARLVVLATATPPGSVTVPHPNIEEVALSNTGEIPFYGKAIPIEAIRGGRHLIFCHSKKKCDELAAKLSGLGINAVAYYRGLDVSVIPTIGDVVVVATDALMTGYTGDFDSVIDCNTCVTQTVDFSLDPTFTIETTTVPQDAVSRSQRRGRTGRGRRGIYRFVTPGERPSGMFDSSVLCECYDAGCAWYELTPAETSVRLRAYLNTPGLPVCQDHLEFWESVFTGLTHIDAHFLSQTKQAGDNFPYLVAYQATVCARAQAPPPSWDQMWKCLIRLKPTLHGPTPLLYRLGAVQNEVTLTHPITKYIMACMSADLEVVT
# Sequence (P26663 1658-1711): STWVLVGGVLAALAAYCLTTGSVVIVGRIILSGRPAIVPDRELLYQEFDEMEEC
# EXPERIMENT DESCRIPTION: HCV NS3 protease time-resolved fluorescence (TRF) assay, NS3/4A inhibitory activity (Ki), gt 1b
# CONDITION NOTES: genotype 1b NS3/4A; read-out: Enzyme Activity gt 1b Ki
READOUT: pKi
// field semantics: pKi = negative decimal log of concentration (mol/L)

# lookup: pKi of C=C[C@@H]1C[C@]1(NC(=O)[C@@H]1C[C@@H]2CN1C(=O)[C@H](C1CCCC1)NC(=O)O[C@]1(C)C[C@H]1CC/C=C/Cn1c(nc3cc(C)ccc3c1=O)O2)C(=O)NS(=O)(=O)C1(C)CC1
10.70

For the compound C=C[C@@H]1C[C@]1(NC(=O)[C@@H]1C[C@@H]2CN1C(=O)[C@H](C1CCCC1)NC(=O)O[C@]1(C)C[C@H]1CCCCCc1nc3cccc(OC)c3nc1O2)C(=O)NS(=O)(=O)C1(C)CC1 , what pKi is on record?
10.40

Report pKi for C=C[C@@H]1C[C@]1(NC(=O)[C@@H]1C[C@@H]2CN1C(=O)[C@H](C(C)(C)C)NC(=O)O[C@]1(C)C[C@H]1CCCCc1cccc3c1CN(C3)C(=O)O2)C(=O)NS(=O)(=O)C1CC1 please.
10.70

Given C=C[C@@H]1C[C@]1(NC(=O)[C@@H]1C[C@@H]2CN1C(=O)[C@H](C1CCCC1)NC(=O)O[C@]1(C)C[C@H]1CC/C=C/Cn1c(nc3cc(Cl)ccc3c1=O)O2)C(=O)NS(=O)(=O)C1CC1 , state its recorded pKi.
10.70

Tell me the measured pKi of C=C[C@@H]1C[C@]1(NC(=O)[C@@H]1C[C@@H]2CN1C(=O)[C@H](C1CCCC1)NC(=O)O[C@]1(C)C[C@H]1CCCCCc1cccc3c1CN(C3)C(=O)O2)C(=O)NS(=O)(=O)C1CC1 , please.
10.70

* * *

# SUBJECT OF TEST: NS3/4A protease gt 3a (Hepatitis C virus genotype 3a, UniProt Q81258)
# Sequence (Q81258 1664-1717): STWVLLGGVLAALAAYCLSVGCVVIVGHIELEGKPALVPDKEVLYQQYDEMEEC
# Sequence (Q81258 1033-1663): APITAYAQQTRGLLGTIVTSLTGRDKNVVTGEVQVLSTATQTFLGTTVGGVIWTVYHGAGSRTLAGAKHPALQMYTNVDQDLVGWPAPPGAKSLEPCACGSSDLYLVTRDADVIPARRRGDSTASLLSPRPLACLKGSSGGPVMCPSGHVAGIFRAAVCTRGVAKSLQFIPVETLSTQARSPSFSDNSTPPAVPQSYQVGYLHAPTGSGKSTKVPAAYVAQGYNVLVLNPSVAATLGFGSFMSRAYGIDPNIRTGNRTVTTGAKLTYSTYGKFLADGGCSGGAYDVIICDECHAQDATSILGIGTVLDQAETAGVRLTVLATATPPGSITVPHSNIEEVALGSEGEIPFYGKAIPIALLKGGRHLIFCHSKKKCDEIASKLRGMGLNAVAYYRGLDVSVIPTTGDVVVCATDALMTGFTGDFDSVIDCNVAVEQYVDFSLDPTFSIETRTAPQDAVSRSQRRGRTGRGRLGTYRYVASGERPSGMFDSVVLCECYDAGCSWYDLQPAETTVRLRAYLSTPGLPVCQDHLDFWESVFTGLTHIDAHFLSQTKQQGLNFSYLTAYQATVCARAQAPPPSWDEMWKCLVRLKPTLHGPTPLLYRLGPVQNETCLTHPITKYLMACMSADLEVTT
# EXPERIMENT DESCRIPTION: HCV NS3 protease time-resolved fluorescence (TRF) assay, NS3/4A inhibitory activity (Ki), gt 3a
# CONDITION NOTES: genotype 3a NS3/4A; read-out: Enzyme Activity gt 3a Ki
READOUT: pKi
Just the number, please; pKi means minus log10 of the concentration in mol/L.

Data request, read-out pKi, for C=C[C@@H]1C[C@]1(NC(=O)[C@@H]1C[C@@H]2CN1C(=O)[C@H](C1CCCC1)NC(=O)O[C@]1(C)C[C@H]1CCCCCc1nc3ccccc3nc1O2)C(=O)NS(=O)(=O)C1(C)CC1 [Example I-29]
8.51

Data request, read-out pKi, for C=C[C@@H]1C[C@]1(NC(=O)[C@@H]1C[C@@H]2CN1C(=O)[C@H](C(C)(C)C)NC(=O)O[C@]1(C)C[C@H]1CCCCc1cccc3c1CN(C3)C(=O)O2)C(=O)NS(=O)(=O)C1CC1 [Example I-20]
7.23

GET /values?readout=pKi&item= C=C[C@@H]1C[C@]1(NC(=O)[C@@H]1C[C@@H]2CN1C(=O)[C@H](C(C)(C)C)NC(=O)O[C@]1(C)C[C@H]1CCC/C=C/c1cccc3c1CN(C3)C(=O)O2)C(=O)NS(=O)(=O)C1(C)CC1 [Example I-32]
8.74

Dear colleague, I am looking for the recorded pKi of the following molecule: C=C[C@@H]1C[C@]1(NC(=O)[C@@H]1C[C@@H]2CN1C(=O)[C@H](C1CCCC1)NC(=O)O[C@@]1(C)C[C@@H]1CC/C=C/Cn1c(nc3cc(Cl)ccc3c1=O)O2)C(=O)NS(=O)(=O)C1CC1 [Example I-25]
7.39

Which pKi is reported for this molecule? C=C[C@@H]1C[C@]1(NC(=O)[C@@H]1C[C@@H]2CN1C(=O)[C@H](C(C)(C)C)NC(=O)O[C@]1(C)C[C@H]1CCCCCc1cccc3c1CN(C3)C(=O)O2)C(=O)NS(=O)(=O)C1CC1 [Example I-6]
8.54

Data provenance is patent US20130178413A1.
